tested.on: T1, human VEGF (hVEGF) (human, UniProt P15692 181-395)
T1 construct: also called VEGF-A
T1 sequence: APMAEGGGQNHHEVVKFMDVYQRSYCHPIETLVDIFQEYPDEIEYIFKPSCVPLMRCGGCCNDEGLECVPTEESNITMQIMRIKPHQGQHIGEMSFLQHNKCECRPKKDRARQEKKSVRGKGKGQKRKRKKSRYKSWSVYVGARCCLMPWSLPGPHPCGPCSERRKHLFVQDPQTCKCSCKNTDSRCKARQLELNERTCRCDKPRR
method: SPR
Provide the reported kon of each item.
Write the number in M⁻¹ s⁻¹ without appending the unit.

Returns the measured kon for the input binder. Input: G6.31 HC-N82aR (Fab, name in Kabat numbering, V domains shown, Fab) VH: EVQLVESGGGLVQPGGSLRLSCAASGFTISDYWIHWVRQAPGKGLEWVAGITPAGGYTYYADSVKGRFTISADTSKNTAYLQMRSLRAEDTAVYYCARFVFFLPYAMDYWGQGTLVTVSS VL: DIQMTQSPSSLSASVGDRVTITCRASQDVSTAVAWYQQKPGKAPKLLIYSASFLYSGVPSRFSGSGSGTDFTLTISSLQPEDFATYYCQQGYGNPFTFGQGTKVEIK
1.62e+06

Returns the measured kon for the input binder. Input: G6.31 LC-F83A (Fab, V domains shown, Fab) VH: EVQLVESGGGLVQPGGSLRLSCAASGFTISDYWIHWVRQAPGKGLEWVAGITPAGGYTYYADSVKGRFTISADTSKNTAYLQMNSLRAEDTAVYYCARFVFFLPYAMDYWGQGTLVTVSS VL: DIQMTQSPSSLSASVGDRVTITCRASQDVSTAVAWYQQKPGKAPKLLIYSASFLYSGVPSRFSGSGSGTDFTLTISSLQPEDAATYYCQQGYGNPFTFGQGTKVEIK
1.65e+06

Returns the measured kon for the input binder. Input: G6.31 HC-Y58R (Fab, name in Kabat numbering, V domains shown, Fab) VH: EVQLVESGGGLVQPGGSLRLSCAASGFTISDYWIHWVRQAPGKGLEWVAGITPAGGYTRYADSVKGRFTISADTSKNTAYLQMNSLRAEDTAVYYCARFVFFLPYAMDYWGQGTLVTVSS VL: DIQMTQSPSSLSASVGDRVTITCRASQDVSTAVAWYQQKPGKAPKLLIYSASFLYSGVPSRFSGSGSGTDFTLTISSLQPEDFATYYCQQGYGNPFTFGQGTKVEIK
2.42e+06

Returns the measured kon for the input binder. Input: G6.31 Y58R.N94A.F83A (Fab, name in Kabat numbering, V domains shown, Fab) VH: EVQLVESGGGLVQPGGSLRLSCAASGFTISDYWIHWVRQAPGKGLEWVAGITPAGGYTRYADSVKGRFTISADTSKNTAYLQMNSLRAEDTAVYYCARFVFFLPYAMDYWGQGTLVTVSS VL: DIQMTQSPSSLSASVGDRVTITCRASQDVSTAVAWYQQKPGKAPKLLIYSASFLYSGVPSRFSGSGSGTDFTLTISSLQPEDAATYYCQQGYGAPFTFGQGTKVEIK
2.22e+06

Returns the measured kon for the input binder. Input: G6.31 LC-N94A (Fab, V domains shown, Fab) VH: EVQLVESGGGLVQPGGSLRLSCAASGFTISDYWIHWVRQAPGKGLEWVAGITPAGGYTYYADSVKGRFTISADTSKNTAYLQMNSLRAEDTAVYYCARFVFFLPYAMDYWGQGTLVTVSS VL: DIQMTQSPSSLSASVGDRVTITCRASQDVSTAVAWYQQKPGKAPKLLIYSASFLYSGVPSRFSGSGSGTDFTLTISSLQPEDFATYYCQQGYGAPFTFGQGTKVEIK
1.59e+06
